Every entry's value here was drawn from patent US20110118131A1.

- targetOfAssay: T1, IL-1β (UniProt P01584 117-269)
- T1 construct: Antigen immobilised on the Biacore chip
- procedureText: Biacore, periplasmic extract
observable: fold difference in affinity vs original

Worked set:
XPA23 light chain N30L (Fab, V domains shown) VH: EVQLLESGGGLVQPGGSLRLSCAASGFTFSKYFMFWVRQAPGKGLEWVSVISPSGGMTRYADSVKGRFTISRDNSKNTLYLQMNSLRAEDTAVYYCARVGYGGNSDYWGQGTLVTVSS VL: DIQMTQSPSSVSASVGDRLTIICRASQDILRWLAWYQQTPGNAPKLLIHSATSLQSGVPSRFSGSGSGTDFTLTINSLQPEDFATYYCQQADSFPLTFGGGTKVEIK    0.68 fold
XPA23 light chain D92H (Fab, V domains shown) VH: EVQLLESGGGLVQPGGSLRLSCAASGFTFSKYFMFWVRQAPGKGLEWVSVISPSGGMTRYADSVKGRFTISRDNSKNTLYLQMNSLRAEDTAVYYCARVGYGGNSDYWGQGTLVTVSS VL: DIQMTQSPSSVSASVGDRLTIICRASQDINRWLAWYQQTPGNAPKLLIHSATSLQSGVPSRFSGSGSGTDFTLTINSLQPEDFATYYCQQAHSFPLTFGGGTKVEIK    0.63 fold
XPA23 light chain L96W (Fab, V domains shown) VH: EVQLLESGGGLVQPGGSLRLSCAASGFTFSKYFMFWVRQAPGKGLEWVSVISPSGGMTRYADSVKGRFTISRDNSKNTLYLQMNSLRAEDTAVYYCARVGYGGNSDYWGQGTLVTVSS VL: DIQMTQSPSSVSASVGDRLTIICRASQDINRWLAWYQQTPGNAPKLLIHSATSLQSGVPSRFSGSGSGTDFTLTINSLQPEDFATYYCQQADSFPWTFGGGTKVEIK    4.49 fold
XPA23 light chain S93K (Fab, V domains shown) VH: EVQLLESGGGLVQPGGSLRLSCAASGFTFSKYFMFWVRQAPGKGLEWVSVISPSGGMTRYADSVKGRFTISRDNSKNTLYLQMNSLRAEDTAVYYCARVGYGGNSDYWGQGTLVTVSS VL: DIQMTQSPSSVSASVGDRLTIICRASQDINRWLAWYQQTPGNAPKLLIHSATSLQSGVPSRFSGSGSGTDFTLTINSLQPEDFATYYCQQADKFPLTFGGGTKVEIK    0.86 fold
XPA23 light chain D28S (Fab, V domains shown) VH: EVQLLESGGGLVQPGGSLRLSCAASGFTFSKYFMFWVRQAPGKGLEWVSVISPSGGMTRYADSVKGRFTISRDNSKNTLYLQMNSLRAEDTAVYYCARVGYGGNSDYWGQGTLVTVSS VL: DIQMTQSPSSVSASVGDRLTIICRASQSINRWLAWYQQTPGNAPKLLIHSATSLQSGVPSRFSGSGSGTDFTLTINSLQPEDFATYYCQQADSFPLTFGGGTKVEIK    5.25 fold

Item XPA23 light chain D92Q (Fab, V domains shown) VH: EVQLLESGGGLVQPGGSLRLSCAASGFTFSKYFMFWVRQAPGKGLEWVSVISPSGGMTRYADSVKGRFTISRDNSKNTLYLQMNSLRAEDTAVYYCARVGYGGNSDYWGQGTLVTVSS VL: DIQMTQSPSSVSASVGDRLTIICRASQDINRWLAWYQQTPGNAPKLLIHSATSLQSGVPSRFSGSGSGTDFTLTINSLQPEDFATYYCQQAQSFPLTFGGGTKVEIK has what recorded fold difference in affinity vs original?
0.56 fold

Then what about the binder XPA23 light chain S93E (Fab, V domains shown) VH: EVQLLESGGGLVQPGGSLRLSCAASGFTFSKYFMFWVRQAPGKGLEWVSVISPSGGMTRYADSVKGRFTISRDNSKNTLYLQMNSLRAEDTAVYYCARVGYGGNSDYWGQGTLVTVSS VL: DIQMTQSPSSVSASVGDRLTIICRASQDINRWLAWYQQTPGNAPKLLIHSATSLQSGVPSRFSGSGSGTDFTLTINSLQPEDFATYYCQQADEFPLTFGGGTKVEIK ?
3.71 fold
